The measured values listed here are drawn from the Deep4Chem optical property database.

- measurement_notes: photoluminescence quantum yield (fraction); solvent given as SMILES
- experimental_conditions: in CCCCCC
Rule: measured photoluminescence quantum yield below 0.5 gets Y; anything equal to or greater than 0.5 gets N.

{"structure_notation": "Cc1ccc(C)n1-c1ccc(N(C)C)cc1", "category_label": "Y"}
{"structure_notation": "Cn1cccc1-c1cc(C#N)ccc1C#N", "category_label": "Y"}
{"structure_notation": "CN(C)c1ccc(/C=C/C=C/c2nc3ccccc3s2)cc1", "category_label": "Y"}
{"structure_notation": "CC1=CC(C)=[N+]2C1=C(c1ccc(N3CCOCC3)cc1)c1c(C)cc(C)n1[B-]2(F)F", "category_label": "Y"}
{"structure_notation": "CC(C)(C)c1ccc(-c2sc3c(-c4ccc(C(C)(C)C)cc4)c4n(c3c2-c2ccc(C(C)(C)C)cc2)[B-](F)(F)[N+]2=Cc3c(-c5ccc(C(C)(C)C)cc5)c5sc(-c6ccc(C(C)(C)C)cc6)c(-c6ccc(C(C)(C)C)cc6)c5n3[B-](F)(F)[N+]2=C4)cc1", "category_label": "N"}
{"structure_notation": "C#CCN1C(=O)/C(=C/c2cc(OC(C)C)ccc2OC(C)C)N=C1C", "category_label": "Y"}
{"structure_notation": "CCCCCCC(CCCCCC)N1C(=O)c2cccc3c(-c4ccc(N(C)C)cc4)ccc(c23)C1=O", "category_label": "N"}
{"structure_notation": "O=c1oc2ccc3ccccc3c2nc1-c1ccccc1", "category_label": "Y"}
{"structure_notation": "CN(C)c1ccc(/C=C/C=C/c2ccc(C#N)cc2)cc1", "category_label": "Y"}

----------
- measurement_notes: photoluminescence quantum yield (fraction); solvent given as SMILES
- experimental_conditions: in CCOC(C)=O

{"structure_notation": "CCCCCCCCC1(CCCCCCCC)c2cc(C=O)ccc2-c2ccc(/C=C/c3ccc(N(c4ccccc4)c4ccccc4)cc3)cc21", "photoluminescence quantum yield": 0.6}
{"structure_notation": "O=Cc1c(O)c(-c2nc3ccccc3s2)cc2ccccc12", "photoluminescence quantum yield": 0.068}
{"structure_notation": "[C-]#[N+]c1ccc(-c2ccc(N)cc2)cc1", "photoluminescence quantum yield": 0.67}
{"structure_notation": "Cc1cnc(NC(=O)C2=C(O)c3ccccc3S(=O)(=O)N2C)s1", "photoluminescence quantum yield": 0.0113}
{"structure_notation": "CCC1=C(C)C2=Cc3cc(I)cn3[B-](F)(F)[N+]2=C1C", "photoluminescence quantum yield": 0.078}
{"structure_notation": "CC1=[N+]2C(=C(Oc3ccc4c(c3)CC[C@@H]3[C@@H]4CC[C@]4(C)C(=O)CC[C@@H]34)c3ccc(C)n3[B-]2(F)F)C=C1c1cc2n(c1)[B-](F)(F)[N+]1=CC=CC1=C2c1c(C)cc(C)cc1C", "photoluminescence quantum yield": 0.12}
{"structure_notation": "COc1ccc(/C=C2\\OC(=O)c3ccccc32)cc1", "photoluminescence quantum yield": 0.008}
{"structure_notation": "c1ccc(Nc2nc(Nc3ccccc3)nc(Nc3ccc4c5cccc6cccc(c7cccc3c74)c65)n2)cc1", "photoluminescence quantum yield": 0.44}
{"structure_notation": "O=Cc1cc(C=O)c2ccc3c(N4CCCCC4)cc(N4CCCCC4)c4ccc1c2c43", "photoluminescence quantum yield": 0.93}

----------
- measurement_notes: photoluminescence quantum yield (fraction); solvent given as SMILES
- experimental_conditions: in Cc1ccccc1

{"structure_notation": "O=Cc1c(O)c(-c2nc3ccccc3s2)cc2ccccc12", "photoluminescence quantum yield": 0.068}
{"structure_notation": "O=Cc1cc(C=O)c2ccc3c(N4CCCCC4)cc(N4CCCCC4)c4ccc1c2c43", "photoluminescence quantum yield": 0.94}
{"structure_notation": "CC(C)(C)c1ccc2c(c1)B1c3cc(C(C)(C)C)ccc3Oc3cc(-n4c5ccccc5c5c6c(c7ccccc7n6-c6ccccc6)c6c(c7ccccc7n6-c6ccccc6)c54)cc(c31)O2", "photoluminescence quantum yield": 0.99}
{"structure_notation": "CCn1c2cc(C(C)(C)C)ccc2c2c3nsnc3c3c4ccc(C(C)(C)C)cc4n(CC)c3c21", "photoluminescence quantum yield": 0.08}
{"structure_notation": "CCCCCCc1ccc(-n2c3[n+](c4c5ccccc5c5ccccc5c42)[B-](C)(C)c2cc(-n4c5ccccc5c5ccccc54)ccc2-3)cc1", "photoluminescence quantum yield": 0.76}
{"structure_notation": "CCC(=O)c1ccc2cc(N(C)C)ccc2c1", "photoluminescence quantum yield": 0.52}
{"structure_notation": "CCCCCCC(CCCCCC)N1C(=O)c2cccc3c(-c4ccc(N(C)C)cc4)ccc(c23)C1=O", "photoluminescence quantum yield": 0.65}
{"structure_notation": "CCC1=C(C)C2=C(c3c(C)cc(C)nc3-c3cccs3)c3c(C)c(CC)c(C)n3[B-](F)(F)[N+]2=C1C", "photoluminescence quantum yield": 0.49}
